Test system: K4 kissing-loop RNA reporter
Protocol Notes: apparent KD of K4 kissing-loop reporter; higher = weaker reporter binding
Condition Set: Eterna round: R107; input ligand: FMN 200 uM
Mark YES for reported apparent KD of K4 kissing-loop reporter of 500 nM or greater; mark NO for anything smaller.

| Input Sequence | Subject Of Test | Class |
| --- | --- | --- |
| UGGGUGUAGUGAUGUUAUAUAGAGAGUGAUACCAGCUUAGAGAGAAGCCCUUGGCAGCAUAGAAGAGUAUCAUUGGAGGAGGAGG [ExTheophyl.Ay] | K4 kissing-loop RNA reporter | YES |
| AUUUUGGUUGAAGGAUAUUCUCCCAUCGACGCGAUAAGAUACUUUGGAAGGUUUGCAGUGAUGUUGGAAGAAGGUCAAAGUUGUA [theeternabot_exclusion_KL_FMN_B_22] | K4 kissing-loop RNA reporter | NO |
| CAUGCCAUGAUCCUCCUGGUAUCUCCUGAUACCAGCGUGCUGACACGCCCUUGGCAGCAGGAGUCGAGAGUGAUGUUGUCGAGAA [KL-SSTheo-A9 #analogue] | K4 kissing-loop RNA reporter | YES |
| CCAGCGGGCACGGCCGCCACUCUCUCGAGUGAUGUUUGCGGAGUCAGGCCGGCUCAGUACGUCACGAGGACCGGGUGCAAUUUAC [theeternabot_exclusion_KL_Trp_B_40] | K4 kissing-loop RNA reporter | YES |
| GGAGGAGAAUAUGAUACCAGCAGAGAGAGAGAGGAAGUAUAGUGAUGUUAUAUGUGAGAAUGCCCUUGGCAGCAUAACAUGAAGG [whbob_SS_Theo_B_sa90] | K4 kissing-loop RNA reporter | NO |
| GGUAGCAUGGCGGCCGCCACUUUUUUAGAUACCUACACAGAAAGCAGUGAUGUUGCUUGGUGGUAAAGGACCGGGCCAUGCUACC | K4 kissing-loop RNA reporter | NO |

---

Quick reference for apparent KD of K4 kissing-loop reporter among some sequences
Tested on: K4 kissing-loop RNA reporter
Protocol Notes: apparent KD of K4 kissing-loop reporter; higher = weaker reporter binding
Condition Set: Eterna round: R107; input ligand: none

| Input Sequence | Subject Of Test | apparent KD of K4 kissing-loop reporter, nM |
| --- | --- | --- |
| ACACAGAGUUGCCGAGUGAUGUUCGGCUUACGAGGACCGGUACGGCCGCCACUCGUUACUCUGUGUUUUGGACACCAAGGCGUAG [Edvemaquan] | K4 kissing-loop RNA reporter | 675 |
| UUAAUAAUUCAAGGAUAUGUUUUCUAUUUCGAGUGAUGUUCGGAAUUAAUAAAUUUAAAAGAUUAUACAGAAGGUGAUAAAUAGU [Cynwulf-mod#2] | K4 kissing-loop RNA reporter | 85.9 |
| AAAUAUUGUUACCUGUUAACAUAGGGCCAACGAGGACCGGUACGGCCGCCACUCGUCUCAUAGCGAGUGAUGUUCGCACCGCCCA | K4 kissing-loop RNA reporter | 76.6 |

---

System: K4 kissing-loop RNA reporter
Protocol Notes: apparent KD of K4 kissing-loop reporter; higher = weaker reporter binding
Condition Set: Eterna round: R107; input ligand: none
Rule: apparent KD of K4 kissing-loop reporter of 200 nM or more gives 1; anything lower gives 0.

| Input Sequence | Class |
| --- | --- |
| UUUUAUUAAUUCUUCUAGUGAUGUUAGAUACGAGGACCGGUACGGCCGCCACUCGCUUAUUGGUUUAUAAAUUUUAUAUUAUUUA [JR_SSTryptoA_Sub016] | 1 |
| CCUUCCCUUGAUAGUGAUGUUAUCAAGGACAAGGAUAUCAUCUCAAUGAGAAGGUGUCCUUGAUAACAUGGAGGUCUGAAACAGA [Omei KL FMN A Exc C v2] | 0 |
| UAGGUUUAAUCGGCCGCCACUAUCAGAGCGCCAGUGAUGUUGGAGUAACGAUCGUGGCGAGUUAAUAGGACCGGGAUUCAACACA [Velazaer] | 0 |
| CCGUGGAGUGAUGUUCCACGUAAUACGGAUACCAGCUUUGCCAAAGGCCCUUGGCAGCCGCACGUUGCAGUGAUGUUGUGGCGCG [Same State Theophylline A G8] | 0 |
| AGAGUUAUGAGAGGAUAUGCGGCUAGUACUCAAAGAGUACUAGCAGCGGAGUGAUGUUCUGUGAAAGCAGAAGGUUCAUAACUCA [#07 K4 FMN B Same State] | 1 |

---

The reader will find reported apparent KD of MS2 coat protein values listed item by item below.
Test system: MS2 coat protein
Protocol Notes: apparent KD of MS2 coat protein, switch ON state; designed switch direction (-1 OFF switch, 1 ON switch): -1; higher = weaker reporter binding
Condition Set: FMN input: 0 or 200 uM; Eterna round: R93 (includes R88 designs)
Attribute Measured: apparent KD of MS2 coat protein (nM)

| Input Sequence | Subject Of Test | Attribute Measured | Measured Value |
| --- | --- | --- | --- |
| AAGAAGUGAGGAUAUACAAAAUAAAAGAAAAGAAAGAAAGAACAUGAGGAUCACCCAUGUAGAAGGCGCAAGAA [Merhotepre Ini] | MS2 coat protein | apparent KD of MS2 coat protein | 24.5 |
| AACAGACAUGAGGAUCACCCAUGUAAGGAUAUCCCAAACGAUAAAACAAGAAUGACAAGGAGAAGGUGCAGCAA [JR_Exc001_Sub006] | MS2 coat protein | apparent KD of MS2 coat protein | 62.8 |
| AACAGUACAGGAUAUACAUGAGGAUCACCCAUGUAGAGAGAAUAAAACAAAAAUAAAUGUAGAAGGGUACUGAA [Mat - Exclusion 3 - Eli mod - D68] | MS2 coat protein | apparent KD of MS2 coat protein | 24.5 |
| AAAAAGUGAGGAUAUCCAGAUAAAAAAACGAAAAAAAAUCUGGAGAAGGCACAUGAGGAUCACCCAUGUAUGAC [Ex 4 May 6] | MS2 coat protein | apparent KD of MS2 coat protein | 32.7 |
| AAGAACGAAGGAUAUACAUGAGGAUCACCCAUGUAAAAGAAAGAGGGAAAAGAGAAAAGUAGAAGGUCGAAGAA [Ptolemy VIII Euergetes II] | MS2 coat protein | apparent KD of MS2 coat protein | 20.4 |
| AAGAACGGAGGAUAUACAUGAAAGAAAGAAAAGAAAAGAAAACAUGAGGAUCACCCAUGUAGAAGGCCGAAGAA [EteRNA is fun!] | MS2 coat protein | apparent KD of MS2 coat protein | 23.4 |

---

Test system: K4 kissing-loop RNA reporter;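 note: bound reporter read as fluorescence of individual clusters on recovered sequencing chips by microscopy, with normalized cluster intensities fitted with a binding model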
Protocol Notes: apparent KD of K4 kissing-loop reporter; higher = weaker reporter binding
Condition Set: Eterna round: R107; input ligand: arginine 13.2 mM
The following sequences are listed with their measured apparent KD of K4 kissing-loop reporter values.

| Input Sequence | apparent KD of K4 kissing-loop reporter (nM) |
| --- | --- |
| GCCGUCCGGUCGCAAGACCGGACAGCCGAUACCAGCGCGAAGGCGCGCCCUUGGCAGCGGCACCGAGUGAUGUUCGGUCAGGCGG [#2 Same State - Theophylline A Attempt #2 (HarryS)] | 148 |
| GGUGUUGUUUGUGCUGUUUUCCUCGUUCCUCGAGGACCGGUACGGCCGCCACUCGAGUGAUGUUUGGGUAGCGAUCCCUGUUAGU [Bdazzled - #8 Exc. Tryptophan A] | 504 |
| AAUAUAGUGAUGUUAUAUAAGAAGGAGUUACGAGGACCGGUACGGCCGCCACUCGAAACGAGUGAGGGCCCGGGAGAUUGGGCCC [SSTryptA.G] | 275 |
| CCGGUUCCAACGCUGACUGAAGAACAUGAUACCAGUCGAGGACUCGACCCUUGGCAGCAUUAUAGAGUGAUGUUCGCUUCAGAAA [theeternabot_sameState_KL_Theo_A_15] | 140 |
| CCCGUGGGUUUGAGAGGGCUUGUGGGAAGUAAGGAUAUUUAGGGAGAAAGAAGGUACUAUAGAAUAUAGUGAUGUUAUAUAUGGG [#06 K4 FMN A Same State] | 218 |

---

System: MS2 coat protein
Protocol Notes: apparent KD of MS2 coat protein; designed switch direction (-1 OFF switch, 1 ON switch): -1; higher = weaker reporter binding
Condition Set: input ligand: FMN 200 uM

| Input Sequence | apparent KD of MS2 coat protein (nM) |
| --- | --- |
| UCACCGCAAGGAUAUACUUGCGGUGAUGUUCGAAUCUUUCUACUUGAGGAUCACCCAAGUAGAAGGUGCGGUGA [jl-ex2.4.69 ViennaUCT mod] (Eterna round: R97, puzzle: Exclusion 2) | 15.4 |
| AGAGUGCUGCGAGGAUAUACAUGAGGAUCACCCAUGUUUUCCUGUGAGGCAAAGCCUCACAGGAUGUAGAAGGCGCAGUACUCA [Mat - Exclusion NG 2 - Mod of JL - D39] (Eterna round: R96, puzzle: Exclusion NG 2) | 13.9 |
